Assay: AUC (0 to infinity) in healthy human at 200 mg/kg, po administered as single dose after 1 day
Format: ADME, organism-based
Parameters: time infinity, dose 200 mg/kg, route oral
Conditions: plasma
value-type: AUC(0-inf) (ng·h/mL)
Return type: number; implicit unit ng·h/mL.

response.value for `COC[C@@H](c1ccc(C(F)(F)F)cc1)N1CCN(C2(C)CCN(C(=O)c3c(C)ncnc3C)CC2)C[C@@H]1C` (field: AUC(0-inf)) = 6050

----------
Assay: Cmax in healthy human at 150 […], po once daily for 7 days measured after 1 day of last dose
Format: ADME, organism-based
Set-up: dose 150 mg/kg, route oral
Details: in vivo
value-type: Cmax (ng/mL)
Numeric answer only, unit ng/mL assumed.

Note to self: Cmax recorded for `COC[C@@H](c1ccc(C(F)(F)F)cc1)N1CCN(C2(C)CCN(C(=O)c3c(C)ncnc3C)CC2)C[C@@H]1C` was 474

----------
Assay: Tmax in healthy human at 250 mg/kg, po once daily for 7 days
Format: ADME, organism-based
Design: dose 250 mg/kg, route oral
Settings: in vivo
value-type: Tmax
Respond with the figure and its unit, in that order.

Short answer for COC[C@@H](c1ccc(C(F)(F)F)cc1)N1CCN(C2(C)CCN(C(=O)c3c(C)ncnc3C)CC2)C[C@@H]1C [VICRIVIROC] : Tmax was 2 h

----------
Assay: AUC (0 to 24 hrs) in healthy human at 200 mg/kg, po once daily for 7 days measured after 1 day of last dose
Format: ADME, organism-based
Set-up: time < 24 hr, dose 200 mg/kg, route oral
Settings: plasma
value-type: AUC at 24 h
Please give the number followed by its unit.

Looking up `COC[C@@H](c1ccc(C(F)(F)F)cc1)N1CCN(C2(C)CCN(C(=O)c3c(C)ncnc3C)CC2)C[C@@H]1C` , I see its AUC at 24 h listed as 5390 ng·h/mL

----------
Experiment: Tmax in healthy human at 300 mg/kg, po administered as single dose after 1 day
Assay type: ADME, organism-based
Set-up: dose 300 mg/kg, route oral
Settings: in vivo
value-type: Tmax (h)
Write the number in h without appending the unit.

Per the records, this compound ( COC[C@@H](c1ccc(C(F)(F)F)cc1)N1CCN(C2(C)CCN(C(=O)c3c(C)ncnc3C)CC2)C[C@@H]1C [VICRIVIROC] ) has Tmax equal to 2.9

----------
Experiment: Cmax in healthy human at 150 […], po after 10 days
Format: ADME, organism-based
Design: dose 150 mg/kg, route oral
Conditions: in vivo
value-type: Cmax (ng/mL)
Give just the number in ng/mL; leave the unit off.

Notebook: `COC[C@@H](c1ccc(C(F)(F)F)cc1)N1CCN(C2(C)CCN(C(=O)c3c(C)ncnc3C)CC2)C[C@@H]1C` , Cmax read as 1900

----------
Assay: Cmax in healthy human at 250 mg/kg, po once daily for 7 days measured after 1 day of last dose
Type: ADME, organism-based
Set-up: dose 250 mg/kg, route oral
Settings: in vivo
value-type: Cmax (ng/mL)
Just the number in ng/mL, nothing appended.

Record summary for COC[C@@H](c1ccc(C(F)(F)F)cc1)N1CCN(C2(C)CCN(C(=O)c3c(C)ncnc3C)CC2)C[C@@H]1C [VICRIVIROC] : reported Cmax = 791

----------
Test: Cmax in healthy human at 200 mg/kg, po administered as single dose after 1 day
Assay type: ADME, organism-based
Set-up: dose 200 mg/kg, route oral
Conditions: in vivo
value-type: Cmax (ng/mL)
Answer with a number only, understood to be in ng/mL.

According to the records, this compound COC[C@@H](c1ccc(C(F)(F)F)cc1)N1CCN(C2(C)CCN(C(=O)c3c(C)ncnc3C)CC2)C[C@@H]1C [VICRIVIROC] displays Cmax of 731
